- Tested on: BLyS (human, UniProt Q9Y275 134-285)
- Sequence (Q9Y275 134-285 limits assumed): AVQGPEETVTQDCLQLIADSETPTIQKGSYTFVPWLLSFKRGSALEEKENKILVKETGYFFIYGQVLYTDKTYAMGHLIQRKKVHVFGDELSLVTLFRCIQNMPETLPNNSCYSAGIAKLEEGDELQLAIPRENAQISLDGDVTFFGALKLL
- Protocol summary: specificity phage ELISA, antigen coated at 1 ug/ml, anti-M13-HRP detection
Readout type: binding result

1) scFv T1014B11 (scFv) scFv: EVQLVQSGAEVKKPGASVKVSCKISGDSFTAYFIHWLRQAPGEGLEWMGWFNPISGTAGSPQKFHGRVAMTRDTSISTAYMELTRLASDDTAIYYCARQHHSNTFDPWGQGTLVTVSSGGGGSGGGGSGGGGSAQSALTQPASVSGSPGQSITISCTGTNSDVGGYNYVSWYQQHPGKAPKLMIYEVNNRPSGVSNRFSGSKSGNTASLTISGLQADDEADYYCSSYTTSNTWVFGGGTKLTVLG : no binding
2) scFv T1014G04 (scFv) scFv: EVQLVQSGADVKRPGASVKVSCKISGDSFTAYFIHWVRQAPGQGLEWMGWFNPDSGTADSAQKFHGRVTMTRDTSSSTAFLELSRLRSDDTAVYYCVRQHRGNTFAPWGRGTLVTVSSGGGGSGGGGSGGGGSAQPVLTQPPSASGSPGQSVTISCTGTSSDVGSYEYVSWYQQHPGKAPRLMISEVNKRPSGVPNRFSGSKSGNTASLTVSGLQADDEADYYCSSYAGSNNWVFGGGTKVTVLG : no binding
